Quick list: AC50 per entry.
TESTED_ON: Alpha-1A adrenergic receptor (Homo sapiens, UniProt P35348)
Sequence (P35348 whole entry): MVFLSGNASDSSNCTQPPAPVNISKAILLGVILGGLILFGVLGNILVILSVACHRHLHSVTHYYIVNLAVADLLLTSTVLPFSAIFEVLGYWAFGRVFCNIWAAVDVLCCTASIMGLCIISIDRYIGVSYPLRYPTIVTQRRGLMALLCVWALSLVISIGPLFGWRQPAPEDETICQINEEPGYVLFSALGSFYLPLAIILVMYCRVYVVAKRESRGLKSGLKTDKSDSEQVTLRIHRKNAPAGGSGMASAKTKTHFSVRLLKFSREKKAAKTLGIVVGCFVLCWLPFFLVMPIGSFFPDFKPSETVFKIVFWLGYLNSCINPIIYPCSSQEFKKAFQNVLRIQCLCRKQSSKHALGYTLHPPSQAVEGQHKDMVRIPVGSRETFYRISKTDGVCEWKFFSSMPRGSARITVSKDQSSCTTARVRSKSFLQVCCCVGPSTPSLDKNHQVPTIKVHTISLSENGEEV
Type: functional, cell-based

Some molecules with recorded AC50:
Cc1ccc(C(=O)c2ccc(CC(=O)O)n2C)cc1 | > 30 µM
CC(C)C(=O)Oc1ccc(CO)cc1[C@H](CCN(C(C)C)C(C)C)c1ccccc1 | > 30 µM
CC[C@]12CCCN3CCc4c(n(c5ccccc45)[C@@](O)(C(=O)OC)C1)[C@@H]32 | > 30 µM
CC[C@@H]1C[C@]1(NC(=O)[C@@H]1C[C@@H]2CN1C(=O)[C@H](C(C)(C)C)NC(=O)OCC(C)(C)CCCCc1cccc3c1CN(C3)C(=O)O2)C(=O)NS(=O)(=O)C1CC1 | > 3 µM
O=C(O)Cc1ccccc1Nc1c(Cl)cccc1Cl | > 3 µM
NC(=O)[C@@H]1CC[C@@H]2CN1C(=O)N2OS(=O)(=O)O | > 30 µM
CC1(C)S[C@@H]2[C@H](/N=C/N3CCCCCC3)C(=O)N2[C@H]1C(=O)O | > 30 µM
O=C(O)P(=O)(O)O | > 30 µM
C[C@H](N[C@@H](CCc1ccccc1)C(=O)O)C(=O)N1Cc2ccccc2C[C@H]1C(=O)O | > 30 µM
C=C(C)CNc1ccc(C(C)C(=O)O)cc1 (configuration not stated) | > 30 µM

Req: Which AC50 value belongs to CC(=O)NO [ACETOHYDROXAMIC ACID] ?
Resp: > 30 µM

Req: Requested read-out: AC50. Entry: CC(=O)O[C@H]1Cc2ccccc2N(C(N)=O)c2ccccc21 [ESLICARBAZEPINE ACETATE]
Resp: > 30 µM

Req: Look at this molecule and give its reported AC50. Cc1cc(=O)[nH]c(=S)[nH]1
Resp: > 30 µM

Req: Recorded AC50 of Cc1ccccc1C(=O)Nc1ccc(C(=O)N2CCCC(O)c3cc(Cl)ccc32)c(C)c1 (configuration not stated) , please.
Resp: > 30 µM

Req: // AC50 lookup, key: C[C@]12C=CC(=O)C=C1CC[C@H]1[C@@H]3C[C@@H](O)[C@](O)(C(=O)CO)[C@@]3(C)C[C@H](O)[C@@]12F
Resp: > 30 µM

Req: Consider the molecule shown here: CN1CCCN(C(c2ccccc2)c2ccc(Cl)cc2)CC1 (configuration not stated) What is its recorded AC50?
Resp: 2.89 µM

Req: Can you share its AC50? I mean this molecule: C[C@@H]1C[C@H]2[C@@H]3C[C@H](F)C4=CC(=O)C=C[C@]4(C)[C@H]3[C@@H](O)C[C@]2(C)[C@@]1(O)C(=O)CO
Resp: > 30 µM

###

TESTED_ON: Glutamate receptor ionotropic, NMDA 1 (Rattus norvegicus, UniProt P35439)
Where a SMILES comes first, the peptide text is derived from it. [ ]: non-standard residue; d: D form. pGlu = O=C1CC[C@@H](C(=O)O)N1; Thz = O=C(O)[C@@H]1CSCN1
MEASURED_ENDPOINT: AC50

CO/N=C(\C(=O)N[C@@H]1C(=O)N2C(C(=O)O)=C(CSc3nc(=O)c(=O)[nH]n3C)CS[C@H]12)c1csc(N)n1 [CEFTRIAXONE] | > 30 µM
CC(C)[C@H](N)C(=O)OCCOCn1cnc2c(=O)[nH]c(N)nc21 [VALACYCLOVIR] | > 10 µM
CC(c1cc2ccccc2s1)N(O)C(N)=O (centres undefined) [ZILEUTON] | > 10 µM
Cc1nnc(SCC2=C(C(=O)O)N3C(=O)[C@@H](NC(=O)Cn4cnnn4)[C@H]3SC2)s1 [CEFAZOLIN] | > 30 µM
O=C1CC[C@@H](C(=O)N2CSC[C@H]2C(=O)O)N1 [PIDOTIMOD] ([pGlu]-[Thz]-OH) | > 30 µM

Req: What value of measured AC50 is listed for C[C@@H]1C[C@H]2[C@@H]3C[C@H](F)C4=CC(=O)C=C[C@]4(C)[C@@]3(F)[C@@H](O)C[C@]2(C)[C@@]1(OC(=O)c1ccco1)C(=O)SCF [FLUTICASONE FUROATE] ?
Resp: > 10 µM

Req: // query AC50 value for entry O=C1Cc2cc(CCN3CCN(c4nsc5ccccc45)CC3)c(Cl)cc2N1 [ZIPRASIDONE]
Resp: > 10 µM

###

Observed AC50, system Glucocorticoid receptor (Homo sapiens, UniProt P04150). Note: assay procedure not described here.

Cn1c(=O)c2c(ncn2CCOC(=O)C(C)(C)Oc2ccc(Cl)cc2)n(C)c1=O [THEOFIBRATE] | > 30 µM
C[N+]1(C)CCC(=C(c2ccccc2)c2ccccc2)CC1 | > 10 µM
CCOC(=O)C(C)(C)Oc1ccc(Cl)cc1 [CLOFIBRATE] | > 30 µM
COc1ccccc1OC1(C)OC(=O)c2ccccc2O1 (centres undefined) | > 30 µM
COc1ccc([C@@H]2CC(=O)c3c(O)cc(O)cc3O2)cc1O | > 10 µM
CCOC(=O)c1ccc(C#Cc2ccc3c(c2)C(C)(C)CCS3)nc1 | > 30 µM
CC(c1cc2ccccc2s1)N(O)C(N)=O (centres undefined) | > 30 µM
CC(C)[C@H](N)C(=O)OCCOCn1cnc2c(=O)[nH]c(N)nc21 | > 30 µM

Please look at the following compound next.
Req: GET /values?readout=AC50&item= CC[C@H](C)C(=O)O[C@H]1C[C@@H](C)C=C2C=C[C@H](C)[C@H](CC[C@@H]3C[C@@H](O)CC(=O)O3)[C@H]21
Resp: > 30 µM

###

# reported AC50; entries follow
TESTED_ON: 5-hydroxytryptamine receptor 2B (Homo sapiens)
Sequence (P41595 whole entry): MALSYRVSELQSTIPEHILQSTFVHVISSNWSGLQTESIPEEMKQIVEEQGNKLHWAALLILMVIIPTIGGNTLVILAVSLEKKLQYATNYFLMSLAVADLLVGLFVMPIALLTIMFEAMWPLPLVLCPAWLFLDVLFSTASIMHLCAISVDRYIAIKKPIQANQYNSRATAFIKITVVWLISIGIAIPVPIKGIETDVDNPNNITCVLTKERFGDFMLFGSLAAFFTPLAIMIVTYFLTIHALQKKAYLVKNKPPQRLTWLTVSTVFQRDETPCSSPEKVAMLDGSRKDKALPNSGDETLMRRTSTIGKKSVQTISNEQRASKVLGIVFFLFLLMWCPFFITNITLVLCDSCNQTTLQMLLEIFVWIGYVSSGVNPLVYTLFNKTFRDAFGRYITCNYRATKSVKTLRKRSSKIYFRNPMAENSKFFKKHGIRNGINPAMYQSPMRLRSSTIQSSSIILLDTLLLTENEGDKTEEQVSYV
Assay type: functional, cell-based

Cc1nc(Nc2ncc(C(=O)Nc3c(C)cccc3Cl)s2)cc(N2CCN(CCO)CC2)n1 | > 30 µM

Req: Report AC50 for O=C1Nc2ccc(Cl)cc2C(c2ccccc2Cl)=NC1O (stereo not given) tested on 5-hydroxytryptamine receptor 2B (Homo sapiens). Note: assay procedure not described here.
Resp: > 10 µM

Req: Provide the documented AC50 with 5-hydroxytryptamine receptor 2B (Homo sapiens) as the system for COc1cc(C(=O)OCc2cccc(COC(=O)c3cc(OC)c(OC)c(OC)c3)n2)cc(OC)c1OC
Resp: > 30 µM

Req: Entry O=c1[nH]c2ccccc2n1CCCN1CCN(C(c2ccccc2)c2ccccc2)CC1 [OXATOMIDE] , system 5-hydroxytryptamine receptor 2B (Homo sapiens): what AC50 was measured?; note: assay procedure not described here
Resp: > 30 µM

Req: Hi! What's the reported AC50 for CN[C@@H](C)[C@@H](O)c1ccccc1 on 5-hydroxytryptamine receptor 2B (Homo sapiens)?
Resp: > 10 µM

Req: Requested read-out AC50, target or system 5-hydroxytryptamine receptor 2B (Homo sapiens), entry CC(Cc1cccc(C(F)(F)F)c1)NCCOC(=O)c1ccccc1 (stereo not given); note: assay procedure not described here
Resp: > 30 µM

###

TESTED_ON: Peroxisome proliferator-activated receptor gamma (Homo sapiens, UniProt P37231)
Sequence (P37231 whole entry): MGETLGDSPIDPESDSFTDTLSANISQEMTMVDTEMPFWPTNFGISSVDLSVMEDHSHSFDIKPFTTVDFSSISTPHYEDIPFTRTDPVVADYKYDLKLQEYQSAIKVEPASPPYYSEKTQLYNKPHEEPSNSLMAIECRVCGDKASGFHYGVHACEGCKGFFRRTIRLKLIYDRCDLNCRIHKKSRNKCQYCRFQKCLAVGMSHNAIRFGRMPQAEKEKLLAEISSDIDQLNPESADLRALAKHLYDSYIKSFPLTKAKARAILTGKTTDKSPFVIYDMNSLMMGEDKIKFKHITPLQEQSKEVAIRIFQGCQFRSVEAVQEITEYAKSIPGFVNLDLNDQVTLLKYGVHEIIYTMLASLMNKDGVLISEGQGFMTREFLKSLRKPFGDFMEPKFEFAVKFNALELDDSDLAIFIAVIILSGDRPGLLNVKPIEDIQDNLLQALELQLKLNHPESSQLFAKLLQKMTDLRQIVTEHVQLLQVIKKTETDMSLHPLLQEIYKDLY
Type: functional
MEASURED_ENDPOINT: AC50

These solved cases illustrate the format of a correct answer.
Cc1nnc(SCC2=C(C(=O)O)N3C(=O)[C@@H](NC(=O)Cn4cnnn4)[C@H]3SC2)s1 [CEFAZOLIN] | > 300 µM
CC(C)(Oc1ccc(CCNC(=O)c2ccc(Cl)cc2)cc1)C(=O)O [BEZAFIBRATE] | > 30 µM

Consider now this further compound.
Req: Form field: AC50 recorded for CCC(=O)O[C@]1(C(=O)CCl)[C@@H](C)C[C@H]2[C@@H]3CCC4=CC(=O)C=C[C@]4(C)[C@@]3(F)[C@@H](O)C[C@@]21C [CLOBETASOL PROPIONATE] with Peroxisome proliferator-activated receptor gamma (Homo sapiens, UniProt P37231) (enter value)
Resp: > 30 µM

###

Items are presented alongside their recorded AC50.
TESTED_ON: Histamine H3 receptor (Homo sapiens)
Sequence (Q9Y5N1 whole entry): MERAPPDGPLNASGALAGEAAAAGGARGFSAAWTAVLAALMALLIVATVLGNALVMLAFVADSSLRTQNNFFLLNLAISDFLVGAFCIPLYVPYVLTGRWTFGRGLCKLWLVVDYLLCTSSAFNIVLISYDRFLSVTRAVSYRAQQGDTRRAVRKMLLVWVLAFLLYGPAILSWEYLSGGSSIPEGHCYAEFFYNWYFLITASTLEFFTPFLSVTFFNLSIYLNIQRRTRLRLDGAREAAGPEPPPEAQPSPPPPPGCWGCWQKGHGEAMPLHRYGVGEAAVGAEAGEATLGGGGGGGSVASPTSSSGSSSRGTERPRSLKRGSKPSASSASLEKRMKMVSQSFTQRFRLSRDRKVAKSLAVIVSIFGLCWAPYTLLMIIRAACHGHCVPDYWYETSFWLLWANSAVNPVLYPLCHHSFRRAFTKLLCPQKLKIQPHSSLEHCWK

CCCNC(=O)NS(=O)(=O)c1ccc(Cl)cc1 [CHLORPROPAMIDE] | > 10 µM
CCOC(=O)c1ncn2c1CN(C)C(=O)c1cc(F)ccc1-2 | > 30 µM
CC(C)c1cccc(C(C)C)c1O | > 30 µM
COc1cc(C(C)=O)ccc1OCCCN1CCC(c2noc3cc(F)ccc23)CC1 | > 30 µM
CC(c1cc2ccccc2s1)N(O)C(N)=O (centres undefined) | > 10 µM

Req: What measured AC50 is associated with CCc1cc2c(s1)-n1c(C)nnc1CN=C2c1ccccc1Cl on Histamine H3 receptor (Homo sapiens)?
Resp: > 30 µM

Req: # query: AC50 | item CC(C(=O)O)c1ccc2c(c1)CC(=O)c1ccccc1S2 (centres undefined) | system: Histamine H3 receptor (Homo sapiens); note: assay procedure not described here
Resp: > 30 µM

Req: Give Histamine H3 receptor (Homo sapiens) AC50 for COC(=O)C1=C(C)NC(C)=C(C(=O)OCCN2CCN(C(c3ccccc3)c3ccccc3)CC2)C1c1cccc([N+](=O)[O-])c1 (centres undefined)
Resp: > 30 µM

Req: Item: CCC(=O)O[C@](Cc1ccccc1)(c1ccccc1)[C@H](C)CN(C)C Test system: Histamine H3 receptor (Homo sapiens) Read-out: AC50 Value: ?; note: assay procedure not described here
Resp: > 10 µM
